Just for reference, paper PMC5716173 is where these values come from.

- Subject Of Test: T1, PabPolB exo- (family B DNA polymerase, exonuclease-deficient) (Pyrococcus abyssi, UniProt P0CL77 1-771, D215A)
- T1 sequence: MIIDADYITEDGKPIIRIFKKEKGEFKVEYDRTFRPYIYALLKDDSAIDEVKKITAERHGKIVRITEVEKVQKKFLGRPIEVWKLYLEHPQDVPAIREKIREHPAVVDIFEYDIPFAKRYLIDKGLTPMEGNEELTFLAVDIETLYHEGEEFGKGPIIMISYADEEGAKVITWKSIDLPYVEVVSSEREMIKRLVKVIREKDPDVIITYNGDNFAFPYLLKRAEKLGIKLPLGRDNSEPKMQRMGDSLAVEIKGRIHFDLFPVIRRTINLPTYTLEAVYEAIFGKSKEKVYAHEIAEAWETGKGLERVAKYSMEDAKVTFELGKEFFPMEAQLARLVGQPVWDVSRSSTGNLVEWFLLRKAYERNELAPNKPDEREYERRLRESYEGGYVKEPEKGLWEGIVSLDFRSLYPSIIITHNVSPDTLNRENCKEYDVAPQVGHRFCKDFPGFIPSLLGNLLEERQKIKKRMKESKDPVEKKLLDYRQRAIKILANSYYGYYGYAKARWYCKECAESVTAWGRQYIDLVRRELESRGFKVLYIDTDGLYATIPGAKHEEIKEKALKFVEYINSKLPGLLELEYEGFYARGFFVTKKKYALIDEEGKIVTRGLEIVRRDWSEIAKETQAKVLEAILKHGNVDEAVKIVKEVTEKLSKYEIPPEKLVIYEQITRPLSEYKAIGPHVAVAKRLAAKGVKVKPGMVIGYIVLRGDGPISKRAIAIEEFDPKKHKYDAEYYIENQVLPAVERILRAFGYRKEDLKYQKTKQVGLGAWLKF
- Measurement Protocol: fluorescence anisotropy
Attribute Measured: Kd (nM)
Just the number please, in nM, no unit attached.

Qu. Entry HEX-labeled primer/template 18/25 (dsDNA) DNA 1: CGCCGGGCCGAGCCGTGC DNA 2: AGGTCGTGCACGGCTCGGCCCGGCG needs its Kd filled in; supply it.
Ans. 20
